Ref: ChEMBL document CHEMBL1135574

- protocol.summary: Half life period in phosphate buffer (pH 7.5) was determined at 37 degrees Centigrade
- Format: ADME
What half-life was measured for each of the following?
Just the number in h, nothing appended.

Can you share its half-life? I mean this compound: Nc1nc(O)c2ncn(C3C=CC(OCP(=O)(O)OP(=O)(O)C(F)(F)P(=O)(O)OP(=O)(O)COC4C=CC(n5cnc6c(O)nc(N)nc65)C4)C3)c2n1 (centres undefined)
15

Could you share which half-life value was measured for Nc1nc2c(ncn2C2C=CC(OCP(=O)(O)OP(=O)(O)OP(=O)(O)OP(=O)(O)COC3C=CC(n4cnc5c(=O)[nH]c(N)nc54)C3)C2)c(=O)[nH]1 (centres undefined) ?
12
